Tested on: E. coli TESEC Mtb Alr
Test: growth (OD600 after 10 h); higher = more growth (less inhibition)
Settings: arabinose 1000000 nM; compound 0.1 mM; raw OD600 reference: median of DMSO wells 0.193, cell-free background 0.041
Counter-ions that a name gives are not always drawn.
measurement label: growth

1. C=C(C)[C@@H]1[C@H]2OC(=O)[C@@H]1[C@]1(O)C[C@H]3O[C@]34C(=O)O[C@H]2[C@]14C
0.186
2. CNC(=O)Oc1ccc2c(c1)[C@]1(C)CCN(C)[C@@H]1N2C [Eserine hemisulfate salt]
0.184
3. O=[N+]([O-])O[C@@H]1CO[C@H]2[C@@H]1OC[C@@H]2O [Isosorbide mononitrate]
0.209
4. c1ccc2c(c1)Nc1ccccc1S2
0.198
5. CN1CCN(C(=O)OC2c3nccnc3C(=O)N2c2ccc(Cl)cn2)CC1 (stereo not drawn)
0.18
6. CN1C[C@H](C(=O)N[C@]2(C)O[C@@]3(O)[C@@H]4CCCN4C(=O)[C@H](Cc4ccccc4)N3C2=O)C[C@@H]2c3cccc4[nH]cc(c34)C[C@H]21 [Dihydroergotamine tartrate]
0.0579
7. C[N+]1([O-])[C@@H]2C[C@@H](OC(=O)[C@H](CO)c3ccccc3)C[C@H]1[C@@H]1O[C@@H]12 (stereo partly drawn) [Scopolamin-N-oxide hydrobromide]
0.19
8. CN(C)C(=O)Oc1ccc[n+](C)c1 [Pyridostigmine iodide]
0.181
9. COc1ccc(C(CN(C)C)C2(O)CCCCC2)cc1 (stereo not drawn)
0.178
10. C#C[C@]1(O)CC[C@H]2[C@@H]3CCC4=CC(=O)CC[C@]4(C)[C@H]3CC[C@@]21C
0.172
11. C[C@@H]1CC[C@H]2[C@@H](C)C(=O)O[C@@H]3O[C@@]4(C)CC[C@@H]1[C@]32OO4
0.109
12. CN[C@@H]1[C@@H](O)[C@@H](O[C@@H]2[C@@H](O)[C@H](O[C@H]3O[C@H](CN)CC[C@H]3N)[C@@H](N)C[C@H]2N)OC[C@]1(C)O.CN[C@@H]1[C@@H](O)[C@@H](O[C@@H]2[C@@H](O)[C@H](O[C@H]3O[C@H]([C@@H](C)N)CC[C@H]3N)[C@@H](N)C[C@H]2N)OC[C@]1(C)O.CN[C@@H]1[C@@H](O)[C@@H](O[C@@H]2[C@@H](O)[C@H](O[C@H]3O[C@H]([C@@H](C)NC)CC[C@H]3N)[C@@H](N)C[C@H]2N)OC[C@]1(C)O [Gentamicine sulfate]
0.0448
13. CC[N+]1(C)CCCC(OC(=O)C(O)(c2ccccc2)c2ccccc2)C1 (stereo not drawn) [Pipenzolate bromide]
0.186

====

Test system: E. coli TESEC Alr+ wild-type control
Assay: growth (OD600 after 10 h); higher = more growth (less inhibition)
Conditions: compound 0.1 mM; raw OD600 reference: median of DMSO wells 0.241, cell-free background 0.041
Counter-ions that a name gives are not always drawn.
measurement label: growth

1) CC(=O)O[C@H]1CC[C@@]2(C)C(=CC[C@@H]3[C@@H]2CC[C@]2(C)C(=O)CC[C@@H]32)C1 [Dehydroisoandosterone 3-acetate]
0.198
2) C[C@]12C[C@H]3S[C@H]3C[C@@H]1CC[C@@H]1[C@@H]2CC[C@]2(C)[C@@H](O)CC[C@@H]12 [Epitiostanol]
0.248
3) CC(Cc1ccccc1)NCCC(c1ccccc1)c1ccccc1 (configuration not stated) [Prenylamine lactate]
0.0401
4) C[C@]12CCC(=O)C=C1C=C[C@@H]1[C@@H]2CC[C@@]2(C)[C@H]1CC[C@@]2(O)CCC(=O)O [Canrenoic acid potassium salt]
0.227
5) C=C1C[C@@H]2[C@H](CC[C@]3(C)C(=O)CC[C@@H]23)[C@@]2(C)C=CC(=O)C=C12
0.113
6) COc1cc([C@@H]2c3cc4c(cc3[C@H](O)[C@H]3COC(=O)[C@H]23)OCO4)cc(OC)c1OC
0.222
7) CC(C)(N)Cc1ccccc1 [Phentermine hydrochloride]
0.232
8) CCN(CC)C(C)C(=O)c1ccccc1 (configuration not stated) [Amfepramone hydrochloride]
0.25
9) O=P1(NCCCl)OCCCN1CCCl (configuration not stated) [Ifosfamide]
0.233
10) O=c1[nH]oc2c1CCNC2 [THIP Hydrochloride]
0.26
11) COc1ccc(CCN2CCC(Nc3nc4ccccc4n3Cc3ccc(F)cc3)CC2)cc1
0.041
12) C=C(C)[C@@H]1[C@H]2OC(=O)[C@@H]1[C@]1(O)C[C@H]3O[C@]34C(=O)O[C@H]2[C@]14C
0.253

====

Entries and their growth
System: E. coli TESEC Mtb Alr
Assay: growth (OD600 after 10 h); higher = more growth (less inhibition)
Conditions: arabinose 10000 nM; compound 0.1 mM; raw OD600 reference: median of DMSO wells 0.264, cell-free background 0.041
Where a name gives a salt, the structure may show the parent alone.
measurement label: growth

1. O=C(CCCN1CCC(n2c(=O)[nH]c3ccccc32)CC1)c1ccc(F)cc1
0.263
2. COc1cc2c(c(OC)c1OC)-c1ccc(OC)c(=O)cc1[C@@H](NC(C)=O)CC2
0.267
3. CN1C[C@H](C(=O)N[C@]2(C)O[C@@]3(O)[C@@H]4CCCN4C(=O)[C@H](Cc4ccccc4)N3C2=O)C[C@@H]2c3cccc4[nH]cc(c34)C[C@H]21 [Dihydroergotamine tartrate]
0.0692
4. CNC(C)(C)Cc1ccccc1 [Mephentermine hemisulfate]
0.274
5. CN1[C@@H]2C[C@@H](OC(=O)[C@H](CO)c3ccccc3)C[C@H]1[C@@H]1O[C@@H]12 [Scopolamine hydrochloride]
0.292
6. O=C1CC[C@@]2(O)[C@H]3Cc4ccc(O)c5c4[C@@]2(CCN3CC2CC2)[C@H]1O5 [Naltrexone hydrochloride dihydrate]
0.268
7. CCNCC(O)c1cccc(O)c1 (stereo not given) [Etilefrine hydrochloride]
0.261
8. C[N+]1(C)CCOC(O)(c2ccc(-c3ccc(C4(O)C[N+](C)(C)CCO4)cc3)cc2)C1 (stereo not given) [Hemicholinium bromide]
0.276
9. C[C@]12CC[C@H]3[C@@H](CCC4=CC(=O)CC[C@@H]43)[C@@H]1CC[C@@H]2O
0.226
10. C#CCN(C)[C@H](C)Cc1ccccc1 [Selegiline hydrochloride]
0.283
11. CC(=O)O[C@H]1C[C@H](O[C@H]2[C@@H](O)C[C@H](O[C@H]3[C@@H](O)C[C@H](O[C@H]4CC[C@@]5(C)[C@H](CC[C@@H]6[C@@H]5C[C@@H](O)[C@]5(C)[C@@H](C7=CC(=O)OC7)CC[C@]65O)C4)O[C@@H]3C)O[C@@H]2C)O[C@H](C)[C@H]1O[C@@H]1O[C@H](CO)[C@@H](O)[C@H](O)[C@H]1O [Lanatoside C]
0.26
12. N[C@@H]1C[C@H]1c1ccccc1 [Tranylcypromine hydrochloride]
0.28
13. C1CCc2nnnn2CC1
0.275
14. Cc1cccc(C)c1NC1=NCCCS1
0.247
15. O=c1[nH]c2ccccc2n1CCCN1CCC(n2c(=O)[nH]c3cc(Cl)ccc32)CC1
0.214

====

Test system: E. coli TESEC Mtb Alr
Test: growth (OD600 after 10 h); higher = more growth (less inhibition)
Conditions: arabinose 10000000 nM; compound 0.1 mM; raw OD600 reference: median of DMSO wells […], cell-free background 0.052
Where a name gives a salt, the structure may show the parent alone.
measurement label: growth

1. CNC(=O)Oc1ccc2c(c1)[C@]1(C)CCN(C)[C@@H]1N2C [Eserine hemisulfate salt]
0.366
2. CC(NC(C)(C)C)C(=O)c1cccc(Cl)c1 (stereo not drawn) [Bupropion hydrochloride]
0.365
3. CC(C)N(CCC(C(N)=O)(c1ccccc1)c1ccccn1)C(C)C (stereo not drawn) [Disopyramide]
0.351
4. CC(C)(N)Cc1ccccc1 [Phentermine hydrochloride]
0.36
5. CC[C@@]1([C@@H]2O[C@@H]([C@H]3O[C@@](O)(CO)[C@H](C)C[C@@H]3C)C[C@@H]2C)CC[C@H]([C@]2(C)CC[C@]3(C[C@H](O)[C@@H](C)[C@@H]([C@@H](C)[C@@H](OC)[C@H](C)C(=O)O)O3)O2)O1 [Monensin sodium salt]
0.149
6. CCCC[N+]1(C)[C@@H]2CC(OC(=O)[C@H](CO)c3ccccc3)C[C@H]1[C@@H]1O[C@@H]12 (stereo partly drawn) [Butylscopolammonium (n-) bromide]
0.338
7. NCC(CC(=O)O)c1ccc(Cl)cc1 (racemic) [Baclofen (R,S)]
0.361
8. C#CCN(C)[C@H](C)Cc1ccccc1 [Selegiline hydrochloride]
0.342
9. CC(Cc1ccccc1)NCCC(c1ccccc1)c1ccccc1 (stereo not drawn) [Prenylamine lactate]
0.0499
10. C[C@]12CC[C@@H]3c4ccc(OC(=O)N(CCCl)CCCl)cc4CC[C@H]3[C@@H]1CC[C@@H]2O
0.31
11. C[N+]12CCC(CC1)C(OC(=O)C(O)(c1ccccc1)c1ccccc1)C2 (stereo not drawn) [Clidinium bromide]
0.353
12. COc1cc([C@@H]2c3cc4c(cc3[C@H](O)[C@H]3COC(=O)[C@H]23)OCO4)cc(OC)c1OC
0.298
13. C[N+]1([O-])[C@@H]2C[C@@H](OC(=O)[C@H](CO)c3ccccc3)C[C@H]1[C@@H]1O[C@@H]12 (stereo partly drawn) [Scopolamin-N-oxide hydrobromide]
0.347
